TGI listing for selected compounds.
Tested on: TK-10 renal
Test: NCI tumour cell line growth inhibition, 48 h
Where a SMILES comes first, the peptide text is derived from it. [ ]: non-standard residue; d: D form. The star is where a group is joined. mTyr = N[CH](Cc1cccc(O)c1)C(=O)O; Cbz = O=C(OCc1ccccc1)*; OBn = c1ccc(CO*)cc1

# compound, TGI
measured = [
    ("COC(=O)C(Cc1cccc(O)c1)NC(=O)C(CC(=O)OCc1ccccc1)NC(=O)OCc1ccccc1 (stereo not given) (Cbz-Asp(OBn)-[mTyr]-OMe; configuration not given here)", "> 100 µM"),
    ("CC1CN1c1c(C(=O)/C=C/c2ccccc2)c(-c2ccccc2)nn(C)c1=O (stereo not given)", "61.4 µM"),
    ("COc1ccc2c(c1)CCN1CCc3cc(OC)c(OC)cc3CC21 (stereo not given)", "> 100 µM"),
    ("O=C(NC1CCCC1=O)c1ccccc1 (stereo not given)", "> 100 µM"),
    ("COC(=O)C(C)(C)N=CN(C)C", "> 100 µM"),
    ("COCCOCOc1ccc(OCOCCOC)c2c1C(=O)c1ccccc1C2=O", "> 100 µM"),
    ("CCOc1ccc(-n2nnc3c(N)nc(N)nc32)cc1", "> 100 µM"),
    ("CN(C)CCCN1c2ccccc2CCc2ccc([N+](=O)[O-])cc21", "41.8 µM"),
    ("COc1ccc(OC)c(C2SCC(=O)N2NC(=O)C(O)c2ccccc2)c1 (stereo not given)", "> 100 µM"),
    ("Cc1ccc(/C(O)=C/C(=O)C(=O)NN=C(c2ccccc2)c2ccccc2)cc1", "> 100 µM"),
]

----------
Test system: HOP-62 NSCLC
Experiment: NCI tumour cell line growth inhibition, 48 h; in the data active = GI50 below about 0.43 µM; inactive = the rest
Labels: t for active, f for inactive

# molecule, assignedClass
measured = [
    ("COc1ccc(C2[C@@H](Cl)C(=O)N2c2cc(OC)c(OC)c(OC)c2)cc1Cl (stereo partly drawn)", "t"),
    ("CN1CCN(CC(O)COc2c(Br)c(Br)c(Br)c3c2OC(C)(C)C3)CC1 (stereo not drawn)", "f"),
    ("C#CCOc1cccc(Nc2ncnc3c(NC(=O)CCl)cccc23)c1", "f"),
]

----------
Tested on: SF-268 CNS
Experiment: NCI tumour cell line growth inhibition, 48 h; in the data active = GI50 below about 0.43 µM; inactive = the rest
Labels: true = active, false = inactive

# compound, assignedClass
records = [
    ("CC(C)(C)c1ccc(C(=O)Nc2sc3c(c2C(N)=O)CCC(=O)C3)cc1", "false"),
    ("CN(CCCCCl)P(=O)(OCCS(=O)(=O)CC(NC(=O)CCC(N)C(=O)O)C(=O)NC(C(=O)O)c1ccccc1)OCC1OC(n2cc(F)c(=O)[nH]c2=O)CC1O (stereo unspecified)", "true"),
    ("COC1O[C@@H]2C[C@H]3C(C)(C)CCC[C@]3(C)C3=CCCC1[C@@]32C (stereo partly specified)", "false"),
    ("COc1ccc(OC)c(C2SCC(=O)N2NC(=O)C(O)c2ccccc2)c1 (stereo unspecified)", "false"),
    ("Cc1c(C2=C(c3cn(C)c4ccccc34)C(=O)NC2=O)c2ccccc2n1C", "false"),
    ("C[C@@H]1O[C@@H](OC[C@H]2O[C@@H](OCCc3ccc(O)c(O)c3)[C@H](O)[C@@H](O)[C@@H]2OC(=O)/C=C/c2ccc(O)c(O)c2)[C@H](O)[C@H](O)[C@H]1O", "false"),
    ("CN1CCC(n2cnc(-c3ccc(F)cc3)c2-c2ccnc(N)n2)CC1", "false"),
    ("CCCCn1c(=O)c2c(nc3n2CCCN3CCc2ccc(OCC(=O)NCCN(CC)CC)cc2)n(CCCC)c1=O", "false"),
    ("Cn1cc(-c2nonc2-c2cn(C)c3ccccc23)c2ccccc21", "false"),
    ("BrCc1ccc(CBr)cc1", "false"),
    ("CC1OC(O[C@H]2/C=C/C=C/C=C/C=C/C=C/C=C/C=C/[C@H](C)[C@@H](O)[C@@H](C)[C@H](C)OC(=O)CC(O)CC(O)CCC(O)C(O)CC(O)C[C@]3(O)C[C@H](O)C(C(=O)O)C(C2)O3)C(O)[C@H](N)C1O (stereo partly specified)", "false"),
    ("CCn1c2ccccc2c2cc(/C=C(/C#N)C(N)=O)ccc21", "false"),
    ("N#Cc1ccc(N=Cc2c([O-])ccc3ccccc23)cc1.[C-]#[O+].[C-]#[O+].[Ir]", "false"),
    ("CCN(Cc1ccc(Cl)s1)c1ccc(CO)c(Cl)c1", "false"),
    ("O=C([CH-]C(=O)c1ccccc1)c1ccccc1.O=C([CH-]C(=O)c1ccccc1)c1ccccc1.[OH-].[OH-].[Ti+4]", "false"),
    ("COc1ccc2c(c1OC)C(=O)OC2C1c2c(c([N+](=O)[O-])c3c(c2OC)OCO3)CCN1C (stereo unspecified)", "false"),
]
